Please respond with reported Population Membrane Permeable-Phenotype (%) for every item in the list.
- System: Fibroblast
- PROCEDURE SUMMARY: Multiplex assay against human fibroblast
- Assay type: toxicity, cell-based
- EXPERIMENTAL PARAMETERS: 12 h, 10 µM, compound concentration 10 uM, replicate 1
Numbers only, in %.

In the examples that follow, each entry is paired with its recorded Population Membrane Permeable-Phenotype (%).
MOLECULE | OBSERVED MEASUREMENT
CC(C)(C)NC[C@H](O)COc1nsnc1N1CCOCC1 [TIMOLOL] | 33
Cc1ccc2c(c1)c1c(n2CCc2ccc(C)nc2)CCN(C)C1 [LATREPIRDINE] | 3

The molecule CC(C)NC(=O)N1CC[C@H](NC2=Nc3cc(F)ccc3N(CC(F)F)c3ccc(Cl)cc32)C1 showed Population Membrane Permeable-Phenotype (%) equal to 8

----------
- Tested on: Fibroblast
- PROCEDURE SUMMARY: Multiplex assay against human fibroblast
- Assay type: toxicity, cell-based
- EXPERIMENTAL PARAMETERS: 24 h, 10 µM, compound concentration 10 uM, replicate 1
Please respond with reported Population Mitotic Cells (%) for every item in the list.
Numbers only, in %.

In the examples that follow, each entry is paired with its recorded Population Mitotic Cells (%).
COMPOUND | Population Mitotic Cells (%)
C=CC(=O)Nc1cccc(Oc2nc(Nc3ccc(N4CCN(C)CC4)cc3OC)ncc2Cl)c1 | 30
C=CC(=O)Nc1cccc(Sc2nc(Nc3ccc(N4CCN(C)CC4)cc3)ncc2Cl)c1 | 20
Cc1cccc(CN2CCN(C(c3ccccc3)c3ccc(Cl)cc3)CC2)c1.Cl.Cl (stereo not given) | 33
COC(=O)C1=C(C)NC(C)=C(C(=O)OCCCN2CCC(c3ccccc3)(c3ccccc3)CC2)[C@H]1c1cccc([N+](=O)[O-])c1 [NIGULDIPINE] | 20

Consider now this further compound.
Let me check: CC(C)(C)NC[C@H](O)COc1nsnc1N1CCOCC1 [TIMOLOL] , system Fibroblast, measured Population Mitotic Cells (%) is 34

----------
Please respond with reported Population Apoptotic (%) for every item in the list.
- Tested on: Fibroblast
- PROCEDURE SUMMARY: Multiplex assay against human fibroblast
- Format: toxicity, cell-based
- EXPERIMENTAL PARAMETERS: 24 h, 1 µM, compound concentration 1 uM, replicate 2
Numbers only, in %.

In the examples that follow, each entry is paired with its recorded Population Apoptotic (%).
RECORD SMILES | UNIT STRING | Population Apoptotic (%)
CC(C)NC(=O)N1CC[C@H](NC2=Nc3cc(F)ccc3N(CC(F)F)c3ccc(Cl)cc32)C1 | % | 50
CC(C)OC(=O)N1CCC(Oc2ncnc3c2cnn3-c2ccc(S(C)(=O)=O)cc2F)CC1 | % | 50
C[C@]12CC[C@@H]3c4ccc(O)cc4CC[C@H]3[C@@H]1CC[C@@H]2O | % | 50

Consider now this further molecule.
The molecule C=CC(=O)Nc1cccc(Sc2nc(Nc3ccc(N4CCN(C)CC4)cc3)ncc2Cl)c1 showed Population Apoptotic (%) equal to 90

----------
Please respond with reported Population Pyknosed Nuclei (%) for every item in the list.
- Tested on: Fibroblast
- PROCEDURE SUMMARY: Multiplex assay against human fibroblast
- Assay type: toxicity, cell-based
- EXPERIMENTAL PARAMETERS: 24 h, 10 µM, compound concentration 10 uM, replicate 2
Answers are plain numbers, in %.

In the examples that follow, each entry is paired with its recorded Population Pyknosed Nuclei (%).
COMPOUND | UNIT STRING | Population Pyknosed Nuclei (%)
CC(C)NC(=O)N1CC[C@H](NC2=Nc3cc(F)ccc3N(CC(F)F)c3ccc(Cl)cc32)C1 | % | 13
CC(C)Oc1ccccc1C(=O)Nc1ccccc1C(=O)Nc1cccc(S(=O)(=O)C(F)(F)F)c1 | % | 27
CCc1ccc(OCc2ccccc2C(=O)Nc2ccc3nc(C)cc(N)c3c2)cc1.Cl | % | 45
Cc1ccc2c(c1)c1c(n2CCc2ccc(C)nc2)CCN(C)C1 [LATREPIRDINE] | % | 38
C=CC(=O)Nc1cccc(Oc2nc(Nc3ccc(N4CCN(C)CC4)cc3OC)ncc2Cl)c1 | % | 3
CNC(=O)Nc1ccc(-c2nc(N3CC4CCC(C3)O4)c3cnn(C4CCC5(CC4)OCCO5)c3n2)cc1 | % | 49

Consider now this further compound.
Let me check: CC(C)(C)NC[C@H](O)COc1nsnc1N1CCOCC1 [TIMOLOL] , system Fibroblast, measured Population Pyknosed Nuclei (%) is 11

----------
- Tested on: U2OS
- PROCEDURE SUMMARY: Multiplex assay against U2OS
- Format: toxicity, cell-based
- EXPERIMENTAL PARAMETERS: human, 12 h, 10 µM, compound concentration 10 uM, replicate 2
Please respond with reported Population Membrane Permeable-Phenotype (%) for every item in the list.
One number for each entry, in %.

MOLECULE | OBSERVED MEASUREMENT
CN1CCN(Cc2ccc(Nc3ncc(Cl)c(Nc4ccccc4S(=O)(=O)N(C)C)n3)cc2)CC1 | 28
Cc1c[nH]c2nccc(Oc3c(F)cc(Nc4cc(Cl)nc(N)n4)cc3F)c12 | 7
O=c1[nH]c2ccccc2n1C1CCN(Cc2ccc(-c3[nH]c4cc5ncnc5cc4nc3-c3ccccc3)cc2)CC1 | 54

For each entry beneath this line, provide reported Population Membrane Permeable-Phenotype (%).
1. CC(C)OC(=O)N1CCC(Oc2ncnc3c2cnn3-c2ccc(S(C)(=O)=O)cc2F)CC1
2. CC(C)c1noc(N2CCC(COc3ccc(-c4ccc(S(C)(=O)=O)cc4)nc3)CC2)n1
3. CC(C)(C)NC[C@H](O)COc1nsnc1N1CCOCC1
4. CCc1nn(CCCN2CCN(c3cccc(Cl)c3)CC2)c(=O)n1CCOc1ccccc1.Cl [NEFAZODONE HYDROCHLORIDE]

1. 0
2. 3
3. 4
4. 60

For each entry beneath this line, provide reported Population Membrane Permeable-Phenotype (%).
1. Cc1nc(N2CC[C@H](O)C2)ncc1-c1cc(C(F)(F)F)cc2[nH]ncc12
2. C=CC(=O)Nc1ccc2[nH]c(=O)n(C3CCN(Cc4ccc(-c5nc6cc[nH]c(=O)c6cc5-c5ccccc5)cc4)CC3)c2c1

[6, 33]

For each entry beneath this line, provide reported Population Membrane Permeable-Phenotype (%).
1. CNC(=O)Nc1ccc2c(c1)[C@@]1(CC2)OC(=O)N(CC(=O)N(Cc2ccc(F)cc2)[C@@H](C)C(F)(F)F)C1=O
2. CNC(=O)c1ccc(Nc2ncc(C(F)(F)F)c(NCc3nccnc3N(C)S(C)(=O)=O)n2)cc1
3. Cl.O=C(O)c1cc(-c2ccc(C3CCNCC3)cc2)c2ccc(-c3ccc(C(F)(F)F)cc3)cc2c1

1. 21
2. 26
3. 10

----------
- Test system: Fibroblast
- PROCEDURE SUMMARY: Multiplex assay against human fibroblast
- Type: toxicity, cell-based
- EXPERIMENTAL PARAMETERS: 24 h, 10 µM, compound concentration 10 uM, replicate 1
MEASURED ENDPOINT: Population Fragmented Nuclei (%)
Give bare numbers, in %.

In the examples that follow, each entry is paired with its recorded Population Fragmented Nuclei (%).
COMPOUND | MEASURED ON | Population Fragmented Nuclei (%)
CNC(=O)Nc1ccc2c(c1)[C@@]1(CC2)OC(=O)N(CC(=O)N(Cc2ccc(F)cc2)[C@@H](C)C(F)(F)F)C1=O | Fibroblast | 30
C[C@]12CC[C@@H]3c4ccc(O)cc4CC[C@H]3[C@@H]1CC[C@@H]2O | Fibroblast | 22

For each entry beneath this line, provide reported Population Fragmented Nuclei (%).
1. CNC(=O)Nc1ccc(-c2nc(N3CC4CCC(C3)O4)c3cnn(C4CCC5(CC4)OCCO5)c3n2)cc1
2. COC(=O)C1=C(C)NC(C)=C(C(=O)OCCCN2CCC(c3ccccc3)(c3ccccc3)CC2)[C@H]1c1cccc([N+](=O)[O-])c1

1: 28; 2: 29

For each entry beneath this line, provide reported Population Fragmented Nuclei (%).
1. COc1cc2ncn(-c3cc(OCc4ccccc4C(F)(F)F)c(C(N)=O)s3)c2cc1OC [GW843682X]
2. C=CC(=O)Nc1ccc2[nH]c(=O)n(C3CCN(Cc4ccc(-c5nc6cc[nH]c(=O)c6cc5-c5ccccc5)cc4)CC3)c2c1

1: 14; 2: 30

----------
- System: Fibroblast
- PROCEDURE SUMMARY: Multiplex assay against human fibroblast
- Assay type: toxicity, cell-based
- EXPERIMENTAL PARAMETERS: 48 h, 10 µM, compound concentration 10 uM, replicate 1
Please respond with reported Population Mitotic Cells (%) for every item in the list.
Numbers only, in %.

COMPOUND | Population Mitotic Cells (%)
C[C@]12CC[C@@H]3c4ccc(O)cc4CC[C@H]3[C@@H]1CC[C@@H]2O | 33

For each entry beneath this line, provide reported Population Mitotic Cells (%).
1. C#Cc1cccc(Nc2ncnc3cc(OCCOC)c(OCCOC)cc23)c1
2. COc1ccccc1CN[C@H]1C2CCN(CC2)[C@H]1C(c1ccccc1)c1ccccc1
3. Cc1ccccc1C(c1ccccc1C)N1C2CCC1CC(O)(c1ccccc1)C2 (stereo not given)
4. CC(C)c1noc(N2CCC(COc3ccc(-c4ccc(S(C)(=O)=O)cc4)nc3)CC2)n1
5. CN1CCN(Cc2ccc(Nc3ncc(Cl)c(Nc4ccccc4S(=O)(=O)N(C)C)n3)cc2)CC1

1. 12
2. 16
3. 60
4. 55
5. 46

For each entry beneath this line, provide reported Population Mitotic Cells (%).
1. CCOC(=O)Nc1cc(-c2ccc(C)c(NS(C)(=O)=O)c2)nn2c(C)nnc12
2. CC(C)OC(=O)N1CCC(Oc2ncnc3c2cnn3-c2ccc(S(C)(=O)=O)cc2F)CC1
3. CCCSc1nc(N[C@@H]2C[C@H]2c2ccc(F)c(F)c2)c2nnn([C@@H]3C[C@H](OCCO)[C@@H](O)[C@H]3O)c2n1

[45, 53, 30]
